- System: cancer cells
- Test Name: MTS assay: inhibition of cell growth (formazan absorbance at 492 nm after 72 hours with test compound)
- Format: cell-based
- Applied Conditions: Homo sapiens, PC-3 cells, inhibition class, read-out: PC-3, MTS 72 hours at 10 uM
Listing: inhibition at 10 µM of selected molecules

Lookup: Looking for the measured inhibition at 10 µM of Clc1ccccc1CNc1nc2c3c(n[nH]c3n1)CCN2c1ccccc1 [Compound 209] , can you help?
Found: < 50%

Lookup: For the molecule COc1ccc(CN2CCCc3n[nH]c4nc(NCCc5c[nH]c6ccc(Cl)cc56)nc2c34)cc1 [Compound 252] , what inhibition at 10 µM is on record?
Found: < 50%
